- study_target: T1, full-length human Regnase-1 with a FLAG tag on the N-terminal side and a biotin ligase BirA recognition … (human, UniProt Q5D1E8 1-599, biotinylated where required ; Biotinylated at the BirA recognition sequence where required. That sequence is not in the letters.)
- T1 construct: Expressed in Expi293 cells, purified on FLAG M2 agarose and by gel filtration; also called full-length Regnase-1; human full-length Regnase-1
- T1 sequence: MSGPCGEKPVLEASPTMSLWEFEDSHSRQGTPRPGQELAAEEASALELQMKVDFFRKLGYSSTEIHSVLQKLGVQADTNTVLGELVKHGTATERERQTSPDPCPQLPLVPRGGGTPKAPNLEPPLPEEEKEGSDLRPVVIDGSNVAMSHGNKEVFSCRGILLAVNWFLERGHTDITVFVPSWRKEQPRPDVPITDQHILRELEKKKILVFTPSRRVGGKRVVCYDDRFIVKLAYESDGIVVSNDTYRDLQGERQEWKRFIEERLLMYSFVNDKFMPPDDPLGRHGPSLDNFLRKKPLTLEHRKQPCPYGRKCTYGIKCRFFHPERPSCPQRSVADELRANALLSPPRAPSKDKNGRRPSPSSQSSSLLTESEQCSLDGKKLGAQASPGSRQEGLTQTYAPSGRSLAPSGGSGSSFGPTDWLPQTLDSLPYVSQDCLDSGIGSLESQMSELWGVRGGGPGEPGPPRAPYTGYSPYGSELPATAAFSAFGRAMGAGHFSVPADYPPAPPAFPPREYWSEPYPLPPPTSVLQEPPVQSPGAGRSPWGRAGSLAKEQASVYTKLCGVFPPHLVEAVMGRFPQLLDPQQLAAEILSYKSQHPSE
- protocol_text: AlphaScreen, blocks TBK1 binding to FL_Reg1
Positions of bridges follow the written chain, without caps; N, C: chain ends. Non-standard residues stand in square brackets, D forms with d. No end group written: not given here. NMeA = CN[C@@H](C)C(=O)O; dNMeA = CN[C@H](C)C(=O)O
The following binders are listed with their measured IC50 values.
Write down the numeric answer in µM and omit the unit.

Consider the worked cases shown below.
binder: [dNMeA]EDTPEDDHD (lactam N-10) [PP25]
units: µM
IC50: 13.1

binder: [NMeA]NFSNSWYNIWD (lactam N-12) [PP16]
units: µM
IC50: 20.2

binder: [NMeA]WIWDFWNED (lactam N-10) [PP24]
units: µM
IC50: 7.7

binder: [dNMeA]TYGHSSWYKIWD (lactam N-13) [PP9]
units: µM
IC50: 8.3

binder: [NMeA]VFYKIWYNWD (lactam N-11) [PP19]
units: µM
IC50: 2.4

binder: [dNMeA]PNSSWFKIWD (lactam N-11) [PP6]
units: µM
IC50: 19.2

binder: [NMeA]RFGVWSWIYPD (lactam N-12) [PP14]
units: µM
IC50: 7.1

binder: [NMeA]NFNSAYYRAIWD (lactam N-13) [PP7]
units: µM
IC50: 17.9

Q: Quick one: IC50 for [NMeA]KFAQFRWIYPD (lactam N-12) [PP11] ?
Result: 60.9

Q: // IC50 lookup, key: [NMeA]GYANSWYNIWD (lactam N-12) [PP2]
Result: 15.5
